// data source = the supplement of paper PMC8728848

- Measurement target: Fuc(a1-3)[Gal(b1-4)]GlcNAc(b1-2)Man(a1-3)[Fuc(a1-3)[Gal(b1-4)]GlcNAc(b1-2)Man(a1-6)]Man(b1-4)GlcNAc(b1-4)GlcNAc
- Experimental details: glycan array binding signal (z-score within array); higher = stronger binding
- Test parameters: glycan notation: IUPAC condensed, linker removed
About 410 targets per protein were measured; listed, in parts, are those with the strongest signals and a random draw of the rest.

Binder | glycan array binding signal (z-score)
LSectin (Mus musculus), Q8BNX1 (protein) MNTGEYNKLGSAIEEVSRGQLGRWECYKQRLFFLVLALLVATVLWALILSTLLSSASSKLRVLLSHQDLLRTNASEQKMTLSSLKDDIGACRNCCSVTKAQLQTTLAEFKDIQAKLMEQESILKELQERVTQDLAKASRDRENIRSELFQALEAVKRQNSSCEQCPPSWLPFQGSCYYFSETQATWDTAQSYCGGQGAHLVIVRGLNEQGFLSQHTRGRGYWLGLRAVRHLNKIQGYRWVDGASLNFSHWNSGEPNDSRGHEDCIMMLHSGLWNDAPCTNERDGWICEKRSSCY | -0.158
